Target: T1, human CD73 on cells (H322, MDA-MB-231, HT-144, T cells, CD73-transfected HEK293T) (human, UniProt P21589 27-549)
T1 construct: whole, on cells; One molecule for endogenous and transfected cell-surface human CD73; the cell line is named under assay or readout; also called CD73 antigen; human CD73 antigen
T1 sequence (looked up): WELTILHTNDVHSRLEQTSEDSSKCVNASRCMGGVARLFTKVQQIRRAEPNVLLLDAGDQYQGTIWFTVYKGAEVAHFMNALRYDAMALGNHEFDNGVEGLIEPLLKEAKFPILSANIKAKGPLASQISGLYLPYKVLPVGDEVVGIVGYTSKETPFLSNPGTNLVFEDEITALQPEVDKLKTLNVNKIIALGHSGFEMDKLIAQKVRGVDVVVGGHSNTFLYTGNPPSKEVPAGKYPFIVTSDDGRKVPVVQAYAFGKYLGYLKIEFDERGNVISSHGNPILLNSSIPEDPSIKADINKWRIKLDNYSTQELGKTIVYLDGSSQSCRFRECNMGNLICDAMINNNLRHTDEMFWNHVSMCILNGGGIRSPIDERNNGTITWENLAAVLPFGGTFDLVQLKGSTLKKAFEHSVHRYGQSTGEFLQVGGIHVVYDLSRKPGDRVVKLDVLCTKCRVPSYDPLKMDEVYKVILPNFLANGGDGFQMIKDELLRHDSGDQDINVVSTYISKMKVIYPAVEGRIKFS
Assay: flow cytometry on H322 cells (endogenous CD73), PE channel
Description: Analysis of the binding activity of each of the obtained humanized antibodies 002_6_h1 to 002_6_h8 to target expressing cells was carried out by FACS analysis using endogeneously CD73 expressing cells (human lung cancer cell line H322).

Binder	binding result
002_6_h5 (antibody, V domains shown, Humanized antibody of 002_6_c; also called humanized antibody 002_6_h5) VH: QVQLQESGAEVKKPGASVKVSCKASGYTFTDSNMDWVRQAPGQGLEWMGDINPNNGGTIYNQKFKGRVTMTRDTSTSTVYMELSSLRSEDTAVYYCARTNWDYAMDYWGQGTLVTVSS VL: DIQVTQSPSFLSASVGDRVTITCKASQDINSQLSWYQQKPGKAPKLLIYRANRLIDGVPSRFSGSGSGTEFTLTISSLQPEDFATYYCQQYDVFPRTFGGGTKVEIK	binds
002_6_h1 (antibody, V domains shown, Humanized antibody of 002_6_c; also called humanized antibody 002_6_h1) VH: QVQLVQSGAEVKKPGASVKVSCKASGYTFTDSNMDWVRQAPGQRLEWMGDINPNNGGTIYNQKFKGRVTITRDTSASTAYMELSSLRSEDTAVYYCARTNWDYAMDYWGQGTLVTVSS VL: DIQMTQSPSSLSASVGDRVTITCKASQDINSQLSWYQQKPGKAPKLLIYRANRLIDGVPSRFSGSGSGTDFTLTISSLQPEDFATYYCQQYDVFPRTFGQGTKLEIK	binds
002_6_h3 (antibody, V domains shown, Humanized antibody of 002_6_c; also called humanized antibody 002_6_h3) VH: QVQLLQSAAEVRKPGASVKVSCKASGYTFTDSNMDWVRQAPGQGLEWMGDINPNNGGTIYNQKFKGRVTMTTDTSRRTAYMELRSLRSDDTAVYYCARTNWDYAMDYWGQGTTVTVSS VL: DIQMTQSPSFLSASVGDRVTITCKASQDINSQLSWYQQKPGKAPKLLIYRANRLIDGVPSRFSGSGSGTEFTLTISSLQPEDFATYYCQQYDVFPRTFGGGTKLEIK	binds
